Provide the recorded melting point for the entries that follow.

## Input Let me know recorded melting point for CCOC(=O)Nc1cccc(OC(=O)Nc2ccccc2)c1 , thanks.
## Output 120 °C

## Input Let me know recorded melting point for O=C(Nc1ccc(Cl)cc1)c1cccnc1Cl , thanks.
## Output 148 to 149 °C

## Input Let me know recorded melting point for CCOC(=O)Nc1ccccc1 , thanks.
## Output 47 to 51 °C

## Input Let me know recorded melting point for N#CC(=Cc1ccc(O)cc1)C(=O)O , thanks.
## Output 250 to 253 °C

## Input Let me know recorded melting point for C/C(=N/NC(N)=S)C(=O)Nc1ccc(Br)cc1 , thanks.
## Output 228 to 230 °C

## Input Let me know recorded melting point for O=C(CC(=O)C(F)(F)F)c1ccc2c(c1)OCO2 , thanks.
## Output 108 to 109 °C
